Below, each of the compounds is paired with its reported GI50 value.
# System: SK-OV-3
# procedure details: NCI tumour cell line growth inhibition, 48 h
The source made the active and inactive calls. Cut-off read from the data, not from the text of the source: active = GI50 up to about 1.1 µM and inactive = higher.
measured attribute: GI50

1. CC1=NN=C(N)N/C1=C\C(Sc1ccc(Cl)cc1)c1ccc(Cl)cc1Cl (configuration not stated) ... 18.3 µM (inactive)
2. C/C(=N\Nc1nc2ccccc2s1)c1ccc2ccccc2n1 ... > 100 µM (inactive)
3. Cc1ccc2c(c1)NC(=O)CC(c1ccccc1)=N2 ... > 100 µM (inactive)
4. CN(C)C1(N(C)C)Oc2c(c(=O)n(C)c(=O)n2C)C(c2ccc(Br)cc2)C1(F)F (configuration not stated) ... > 100 µM (inactive)
5. O=C1NC2C3CC(OCc4ccccc4)(OCc4ccccc4)C2OC3O1 (configuration not stated) ... > 50 µM (inactive)
6. O=C1CCCC2=C1CC1=C(CCCC1=O)N2c1ccccc1C(=O)O ... > 100 µM (inactive)
7. Cc1ccc(C)c(N2C(=O)C(=O)c3c(C)ccc(C)c32)c1 ... 47.9 µM (inactive)
8. c1cc2c(c(-c3c4ccccc4nc4ccccc34)c1)CC1(CC2)OCCO1 ... > 100 µM (inactive)
9. C=C(CN(C)C)C(=O)c1ccccc1Cl ... > 100 µM (inactive)
10. CNC(=O)CN(CC(N)=O)C(N)=O ... > 100 µM (inactive)
11. O=C1CSC(=S)N1c1ccco1 ... > 100 µM (inactive)
12. O=C(Nc1cccc2ccccc12)c1ccccc1 ... > 100 µM (inactive)
13. NS(=O)(=O)c1ccccc1C(=O)N/N=C(\c1nc2ccc([N+](=O)[O-])cc2[nH]c1=O)C(O)c1ccc([N+](=O)[O-])cc1 (configuration not stated) ... > 100 µM (inactive)
14. CC(=O)OCC1OC(n2c(Br)nc3c2c(=O)n(C)c(=O)n3C)C(OC(C)=O)C1OC(C)=O (configuration not stated) ... > 100 µM (inactive)
15. C[C@@H](NC1CCCC[C@@H]1O)c1ccccc1 (some centres not stated) ... > 100 µM (inactive)
16. CC1(C)OCC(C2OC(OC(=O)c3ccc([N+](=O)[O-])cc3)C3OC(C)(C)OC23)O1 (configuration not stated) ... > 100 µM (inactive)
17. Cc1cccc2ns[s+]c12 ... > 100 µM (inactive)
18. Cc1ccc(/C=N\NC(=O)c2ccncc2)s1 ... > 100 µM (inactive)
19. CCOC(=O)c1cc(-n2nnc3ccccc32)cn1C ... > 10 µM (inactive)
20. Oc1c(Cl)cc2cc1-c1cc(cc(Cl)c1O)CCc1c(cc(Cl)c(O)c1Cl)-c1cc(Cl)c(c(Cl)c1O)/C=C\2 ... 9.16 µM (inactive)
21. CC(C)(Sc1cc(C(C)(C)C)c(O)c(C(C)(C)C)c1)Sc1cc(C(C)(C)C)c(O)c(C(C)(C)C)c1 [PROBUCOL] ... > 100 µM (inactive)
22. Cc1c(-c2coc(-c3ccc([N+](=O)[O-])cc3)n2)c(=O)n(-c2ccccc2)n1C ... > 100 µM (inactive)

* * *

# Test system: IGROV-1
# procedure details: NCI tumour cell line growth inhibition, 48 h
Active and inactive are the calls of the source. No stated cut-off is given here; in the data, active = GI50 up to about 1.1 µM and inactive = higher.
measured attribute: GI50

1. CCOC(=O)c1cc(-n2nnc3ccccc32)cn1C ... > 10 µM (inactive)
2. CCOc1ccc(-n2c(=O)c3nn4c(=O)n(-c5ccc(OCC)cc5)c(=O)c4nn3c2=O)cc1 ... > 100 µM (inactive)
3. CCOC(=O)NC(Nc1ccc(S(=O)(=O)Nc2nc(C)cc(C)n2)cc1)(C(=O)OCC)C(F)(F)F (stereo not given) ... > 100 µM (inactive)
4. O=C1C2C=CC(n3[nH]c(=O)n(Cc4ccccc4)c3=O)CC2C(=O)N1c1ccc(Br)cc1 (stereo not given) ... > 100 µM (inactive)
5. COc1ccc(C(=O)Nc2ccccc2)cc1[N+](=O)[O-] ... > 100 µM (inactive)

* * *

# Test system: ACHN
# procedure details: NCI tumour cell line growth inhibition, 48 h
The source made the active and inactive calls. Cut-off read from the data, not from the text of the source: active = GI50 up to about 1.1 µM and inactive = higher.
measured attribute: GI50

1. N#CC(C(=O)CCC(=O)Nc1ccc(Cl)c(Cl)c1)c1ccc(Cl)cc1 (centres undefined) ... 17.4 µM (inactive)
2. COc1ccc(/C=C2\CCC(CNc3cc(C)on3)C2=O)cc1 (centres undefined) ... > 100 µM (inactive)
3. N#CC1=C(S)N(C2OC(CO)C(O)C(O)C2O)C(c2ccccc2)=CC1c1ccco1 (centres undefined) ... > 10 µM (inactive)
4. CCOc1ccc(NC(=O)C2=C(C)NC(C)=C(C(=O)Nc3ccc(OCC)cc3)C2c2ccc([N+](=O)[O-])cc2)cc1 ... 21.1 µM (inactive)
5. CCCCN(CCCC)C(=Nc1ccccc1)N(CCCC)CCCC ... 3.55 µM (inactive)
6. CC(NC(=O)OCc1ccccc1)NC(=O)C(CC(=O)OC(C)(C)C)NC(=O)OC(C)(C)C (centres undefined) ... > 100 µM (inactive)
7. NC1=C(Cl)C(=O)c2ccccc2C1=O ... 9.27 µM (inactive)
8. O=C1CC(O)C=C1Nc1ccc(Cl)cc1 (centres undefined) ... 6.98 µM (inactive)
9. CC(=O)O[C@H]1CCC2[C@@H]3CCC4Cc5nc6c(nc5C[C@]4(C)C3CC[C@@]21C)CC1CC[C@@H]2C(CC[C@@]3(C)C2CC[C@@H]3C(C)CCCC(C)C)[C@@]1(C)C6 (some centres undefined) ... > 100 µM (inactive)

* * *

# Tested on: M14
# procedure details: NCI tumour cell line growth inhibition, 48 h
Active and inactive are the calls of the source. Cut-off read from the data, not from the text of the source: active = GI50 up to about 1.1 µM and inactive = higher.
Labels: 1 for active, 0 for inactive

1. CC1Cc2cc(O)c(O)cc2-c2cc(O)c(O)cc2CC1C (stereo not drawn) ... 0
2. Cn1c2ccccc2c2c(=S)c3ccccc3ccc21 ... 0
3. CCc1cccc(NC(=O)c2cc(/C=C/c3ccccc3)nc(S)n2)c1 ... 0
4. Cc1ccc(/C=C/C(=O)c2cccc3ccccc23)cc1 ... 0
5. O=C(O)CCC(NC(=O)c1ccc(Nc2nc3ccccc3nc2C(=O)O)cc1)C(=O)O (stereo not drawn) ... 0
6. NCCCN(CCCCN(CCCN)Cc1ccccc1)Cc1ccccc1 ... 0
7. CN(C)C1(N(C)C)Oc2c(c(=O)n(C)c(=O)n2C)C(c2ccc(Br)cc2)C1(F)F (stereo not drawn) ... 0
8. Nc1csc(-c2scc3c2OCCO3)c1N ... 0
9. CCOC(=O)C1=C(C)N2CCCOC2(C)C(C(=O)OC)C1c1cccc([N+](=O)[O-])c1 (stereo not drawn) ... 0
10. CC(C(O)Cc1ccccc1)N(C)/N=N/c1ccc([N+](=O)[O-])cc1 (stereo not drawn) ... 0
11. COc1ccc2o/c(=N/c3ccccc3)c(C(N)=O)cc2c1 ... 0
12. Cc1cc(O)cc2c1O[C@@]1(C)CCC3[C@@]4(C)CC[C@H](O)C(C)(C)C4CC[C@@]3(C)[C@H]1C2 (stereo partly drawn) ... 0
13. C[C@H](O)CCC(=O)c1ccoc1 ... 0
14. O=C(CC1(O)C(=O)Nc2ccccc21)c1ccncc1 (stereo not drawn) ... 0
15. COc1ccc(C(=O)Nc2ccccc2)cc1[N+](=O)[O-] ... 0
16. O=C1C=CC(=O)c2c1ccc1c3ccccc3n(Cc3ccc([N+](=O)[O-])cc3)c21 ... 0
17. COc1cc2c(c(OC)c1OC)C(=O)[C@H]1OC(=O)N[C@@H]21 ... 0
18. COc1ccc(/C=C/c2cc(OC)c(OC)c(OC)c2)cc1OC ... 0
19. O=C1CC(O)C=C1Nc1ccc(Cl)cc1 (stereo not drawn) ... 0
20. CC(C)c1cc(Cl)nc(Cl)n1 ... 0
21. Cc1cccc2ns[s+]c12 ... 0
22. [N-]=[N+]=C(C(=O)OCC#CCOC(=O)C(=[N+]=[N-])S(=O)(=O)c1ccccc1)S(=O)(=O)c1ccccc1 ... 0
23. Cc1ccc(CNc2ccc(Br)cc2)cc1 ... 0
24. O=C1C2c3[nH]c4ccccc4c3C3CCCCCCC3C2C(=O)N1c1ccccc1 (stereo not drawn) ... 0
25. CC1(C)C(=O)/C=C\C(=O)C(C)(C)C(=O)/C=C\C(=O)C(C)(C)C2=CC=C(O2)C(C)(C)C(=O)/C=C\C1=O ... 0
26. CN(C)CC(C)(C)/C(=N\Nc1ccccc1)c1ccccc1 ... 0
27. CC(=O)c1c2c(cc3c1CC1(C3)Cc3cc4c(c(C(=O)O)c3C1)CCCC4)CCCC2.CC(N)c1ccccc1 (stereo not drawn) ... 0
28. Cc1cc(C#N)c[n+](C)c1 ... 0
29. Nc1nc(Sc2ccc([N+](=O)[O-])cn2)c2nc[nH]c2n1 ... 0
30. CC1=C2C(=O)[C@H]3[C@@H](CC=C4C[C@@H](O)CC[C@@]43C)[C@@H]2CC[C@]12O[C@@H]1C[C@H](C)CN[C@H]1[C@H]2C ... 0
31. Cc1ccc2c(ccc(/C=C\c3cc(C)c4cccnc4c3O)[n+]2C)c1 ... 1
32. COc1cc(C2SCC(=O)N2c2ccc(Oc3ccc(Cl)cc3)c(Cl)c2)cc(OC)c1OC (stereo not drawn) ... 0
33. CCOC(=O)C1C(c2ccccc2)C2(C#N)C(=N)OC1(C)C2(C#N)C#N (stereo not drawn) ... 0
34. C[C@@]12C[C@@H](c3ccccc3O1)N1CCSC1=N2 ... 0
35. O=C(Cn1c2c(c3ccccc31)CCCC2)N1CCOCC1 ... 0
36. O=C(O)CN(CC(=O)O)c1ccccc1 ... 0
37. CCOC1=C2N=C(C(CC)c3ccc(F)cc3)N=C2C(=O)c2ccccc21 (stereo not drawn) ... 0
38. Cc1ccc(N2CCN(CCC(=O)O)CC2)cc1 ... 0
39. C=CC1(CC[C@]2(c3ccc(OC)c(OC)c3)C=[N+]([O-])O[C@H](O[C@@H]3CCCC[C@H]3C(C)(C)c3ccccc3)C2)OCC(C)(C)CO1 ... 0
40. CC(/C=N\NC(=S)N(C)C)=N/NC(=S)N(C)C ... 1
41. CC(C)(C)c1cc(OCc2nnc3sc(S)nn23)c(Cl)cc1OCc1nnc2sc(S)nn12 ... 0
42. CCOC(=O)CC(=O)Sc1ccccc1 ... 0
43. COC(=O)N/N=C(\C(=O)Nc1cccc([N+](=O)[O-])c1)c1nc2ccc([N+](=O)[O-])cc2nc1O ... 0
